FYI, the data here is from patent US20260165323A1.

test system: Phakopsora pachyrhizi containing the amino acid substitution F129L in the mitochondrial cytochrome b protein; assay: Use Example 1: protective control of soybean rust on soybeans (PHAKPA P2); type: in vivo; settings: inoculated 2 days after spraying, 4 ppm, % diseased leaf area
Measurement label: % PHAKPA (F129L) Disease level P2 at 4 ppm

# % PHAKPA (F129L) Disease level P2 at 4 ppm (compound: CNC(=O)/C(=N/OC)c1cccc(Cl)c1CO/N=C(\COC)c1ccc(F)cc1F [compound 84] ) is 5%

# % PHAKPA (F129L) Disease level P2 at 4 ppm (compound: CCOC/C(=N\OCc1c(Cl)cccc1/C(=N\OC)C(=O)NC)c1ccc(Cl)cc1 [compound 46] ) is 80%

# % PHAKPA (F129L) Disease level P2 at 4 ppm (compound: CO/C=C(/C(=O)OC)c1cccc(Cl)c1CO/N=C(\COC)c1ccc(Cl)cc1F [compound 106] ) is 14%

# % PHAKPA (F129L) Disease level P2 at 4 ppm (compound: CO/C=C(/C(=O)OC)c1cccc(Cl)c1CO/N=C(\COC)c1cccc(F)c1 [compound 14] ) is 3%

# % PHAKPA (F129L) Disease level P2 at 4 ppm (compound: CO/C=C(/C(=O)OC)c1cccc(Cl)c1CO/N=C(\COC)c1ccccc1Cl [compound 15] ) is 30%

# % PHAKPA (F129L) Disease level P2 at 4 ppm (compound: COC/C(=N\OCc1c(Cl)cccc1/C(=N\OC)C(=O)OC)c1cc(F)cc(F)c1 [compound 82] ) is 12%

# % PHAKPA (F129L) Disease level P2 at 4 ppm (compound: CCOCC(=NOCc1c(Cl)cccc1C(=COC)C(=O)OC)c1ccc(F)cc1 [compound 23] ) is 9%

# % PHAKPA (F129L) Disease level P2 at 4 ppm (compound: CCOC/C(=N\OCc1c(Cl)cccc1/C(=N\OC)C(=O)OC)c1ccccc1F [compound 20] ) is 60%
